Substrate: CCCC(=O)Oc1ccc([N+](=O)[O-])cc1
PROCEDURE_SUMMARY: purified protein
Assay type: biochemical, Lactobacillus johnsonii
TEST_CONTEXT: HEPES pH 7.80, 25 °C (typical assay; saturation conditions as in ref 14), pH 7.8
Please provide measured Km for the entries that follow.
API: value field is a number in mM; no unit string.

Report Km, nothing else, for this protein: LJ0536 (cinnamoyl esterase) (Lactobacillus johnsonii; D138A) (protein, full length in p15TV-L, E. coli BL21(DE3); His6-tag removed by TEV for kinetics; crystals: tag uncleaved, protease-treated (subtilisin or V8), residues 1-245 modelled, four C-terminal residues lost) MATITLERDGLQLVGTREEPFGEIYDMAIIFHGFTANRNTSLLREIANSLRDENIASVRFDFNGHGDSDGKFENMTVLNEIEDANAILNYVKTDPHVRNIYLVGHSQGGVVASMLAGLYPDLIKKVVLLAPAATLKGAALEGNTQGVTYNPDHIPDRLPFKDLTLGGFYLRIAQQLPIYEVSAQFTKPVCLIHGTDDTVVSPNASKKYDQIYQNSTLHLIEGADHCFSDSYQKNAVNLTTDFLQNNNAF 0.22

Return Km (reported value) for this protein: LJ0536, cinnamoyl esterase of Lactobacillus johnsonii N6.2 (wild type) (enzyme, UniProt D3YEX6 1-249, looked up, LJ0536, serine cinnamoyl esterase, Lactobacillus johnsonii N6.2; the crystallised fragment 1-245 is said to lack four C-terminal residues of the full-length protein; The protein as used for gel filtration; also called WT) MATITLERDGLQLVGTREEPFGEIYDMAIIFHGFTANRNTSLLREIANSLRDENIASVRFDFNGHGDSDGKFENMTVLNEIEDANAILNYVKTDPHVRNIYLVGHSQGGVVASMLAGLYPDLIKKVVLLAPAATLKGDALEGNTQGVTYNPDHIPDRLPFKDLTLGGFYLRIAQQLPIYEVSAQFTKPVCLIHGTDDTVVSPNASKKYDQIYQNSTLHLIEGADHCFSDSYQKNAVNLTTDFLQNNNAF 0.16

Name the recorded Km of the protein listed here: LJ0536 (cinnamoyl esterase) (Lactobacillus johnsonii; S68A) (protein, full length in p15TV-L, E. coli BL21(DE3); His6-tag removed by TEV for kinetics; crystals: tag uncleaved, protease-treated (subtilisin or V8), residues 1-245 modelled, four C-terminal residues lost) MATITLERDGLQLVGTREEPFGEIYDMAIIFHGFTANRNTSLLREIANSLRDENIASVRFDFNGHGDADGKFENMTVLNEIEDANAILNYVKTDPHVRNIYLVGHSQGGVVASMLAGLYPDLIKKVVLLAPAATLKGDALEGNTQGVTYNPDHIPDRLPFKDLTLGGFYLRIAQQLPIYEVSAQFTKPVCLIHGTDDTVVSPNASKKYDQIYQNSTLHLIEGADHCFSDSYQKNAVNLTTDFLQNNNAF 0.08
